Entries and their Ki values follow.
biological target: human kisspeptin receptor (KISS1R) (human) (UniProt Q969F8); assay: radioligand competition, hKISS1R membranes; legend: C is >100 nM
Sequence (Q969F8 whole entry): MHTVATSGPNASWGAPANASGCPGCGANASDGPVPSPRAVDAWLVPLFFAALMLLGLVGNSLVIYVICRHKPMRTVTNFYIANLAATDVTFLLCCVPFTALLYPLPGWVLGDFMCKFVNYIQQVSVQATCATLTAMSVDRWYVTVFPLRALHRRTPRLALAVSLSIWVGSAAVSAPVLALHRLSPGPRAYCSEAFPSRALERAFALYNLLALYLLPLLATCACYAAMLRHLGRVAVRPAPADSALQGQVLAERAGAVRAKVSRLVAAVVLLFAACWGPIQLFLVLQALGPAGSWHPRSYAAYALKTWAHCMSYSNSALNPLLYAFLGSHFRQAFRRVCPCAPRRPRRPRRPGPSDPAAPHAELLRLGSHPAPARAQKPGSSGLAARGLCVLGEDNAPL
Square brackets hold non-standard residues; d marks the D form. * marks the point of attachment. DOTA = O=C(O)CN1CCN(CC(=O)O)CCN(CC(=O)*)CCN(CC(=O)O)CC1; Ala(9-anthryl) = N[C@@H](Cc1c2ccccc2cc2ccccc12)C(=O)O; Api(1-amidino) = N=C(N)N1CCC(N)(C(=O)O)CC1; d2Nal = N[C@H](Cc1ccc2ccccc2c1)C(=O)O; 4Pal = N[C@@H](Cc1ccncc1)C(=O)O; Nle = CCCC[C@H](N)C(=O)O; Ahx = NCCCCCC(=O)O; azaGly = NNC(=O)O

Example entries begin here.
- {DOTA-Ahx}-[dY][d2Nal]NTF[azaGly]L[4‑amino‑1‑((pyridin-4-ylmethyl)glycyl)piperidine‑4‑carboxylic acid][dW]-NH2 [Compound 370]: > 100 nM
- {DOTA-Ahx}-[dY][d2Nal]NTF[azaGly]L[4‑amino‑1‑(((tetrahydro-2H-thiopyran-4-yl)methyl)glycyl)piperidine‑4‑carboxylic acid][dW]-NH2 [Compound 375]: > 100 nM

Reported Ki ( {DOTA}-[dY][Ala(9-anthryl)]NTF[azaGly][Nle][Api(1-amidino)][4Pal]-NH2 (SMILES CCCC[C@H](NC(=O)NNC(=O)[C@H](Cc1ccccc1)NC(=O)[C@@H](NC(=O)[C@H](CC(N)=O)NC(=O)[C@H](Cc1c2ccccc2cc2ccccc12)NC(=O)[C@@H](Cc1ccc(O)cc1)NC(=O)CN1CCN(CC(=O)O)CCN(CC(=O)O)CCN(CC(=O)O)CC1)[C@@H](C)O)C(=O)NC1(C(=O)N[C@@H](Cc2ccncc2)C(N)=O)CCN(C(=N)N)CC1) [Compound 123] ) = > 100 nM

Where these numbers come from: patent US20250312499A1
